MEASURED ON: hCA IV (Homo sapiens, UniProt P22748)
Construct: made in house
Sequence (P22748 19-312): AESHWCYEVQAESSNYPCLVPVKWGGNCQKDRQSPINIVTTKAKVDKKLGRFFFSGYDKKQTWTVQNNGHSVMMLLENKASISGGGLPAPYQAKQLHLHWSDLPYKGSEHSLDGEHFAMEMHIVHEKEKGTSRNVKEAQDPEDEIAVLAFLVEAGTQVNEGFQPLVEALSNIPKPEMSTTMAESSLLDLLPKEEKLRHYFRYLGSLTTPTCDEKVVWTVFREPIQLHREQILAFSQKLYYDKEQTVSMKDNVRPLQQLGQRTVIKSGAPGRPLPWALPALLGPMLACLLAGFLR
ASSAY REMARKS: stopped-flow CO2 hydrase assay, hCA IV
Assay type: biochemical
RUN CONDITIONS: mean from three assays by stopped flow technique, errors ± 5–10%; read-out: Ki hCA IV
pKi: −log10 of the molar value.
MEASUREMENT TYPE: pKi

{"columns": ["COMPOUND", "TEST RESULT"],
 "data": [
  ["NCCCNC(=O)c1ncc(-c2ccc(S(N)(=O)=O)s2)o1 [7e]", 8.34]
]}

###

MEASURED ON: hCA II (Homo sapiens)
Construct: made in house
ASSAY REMARKS: stopped-flow CO2 hydrase assay, hCA II
Format: biochemical
Listed here: items and their measured Ki.
MEASUREMENT TYPE: Ki

{"columns": ["COMPOUND", "TEST RESULT"],
 "data": [
  ["NC1CCN(C(=O)c2ncc(-c3ccc(S(N)(=O)=O)s3)o2)CC1 [7c]", "0.41 nM"],
  ["NS(=O)(=O)c1ccc(-c2cnc(C(=O)N3CCNCC3)o2)s1 [7a]", "0.069 nM"]
]}
